# assay_system: human TMEM16A (TMEM16Aabc variant) (Homo sapiens, UniProt Q5XXA6, DEL476-501)
# Sequence (Q5XXA6 with tags, fused parts or gaps isoform Q5XXA6-5 DEL539-564): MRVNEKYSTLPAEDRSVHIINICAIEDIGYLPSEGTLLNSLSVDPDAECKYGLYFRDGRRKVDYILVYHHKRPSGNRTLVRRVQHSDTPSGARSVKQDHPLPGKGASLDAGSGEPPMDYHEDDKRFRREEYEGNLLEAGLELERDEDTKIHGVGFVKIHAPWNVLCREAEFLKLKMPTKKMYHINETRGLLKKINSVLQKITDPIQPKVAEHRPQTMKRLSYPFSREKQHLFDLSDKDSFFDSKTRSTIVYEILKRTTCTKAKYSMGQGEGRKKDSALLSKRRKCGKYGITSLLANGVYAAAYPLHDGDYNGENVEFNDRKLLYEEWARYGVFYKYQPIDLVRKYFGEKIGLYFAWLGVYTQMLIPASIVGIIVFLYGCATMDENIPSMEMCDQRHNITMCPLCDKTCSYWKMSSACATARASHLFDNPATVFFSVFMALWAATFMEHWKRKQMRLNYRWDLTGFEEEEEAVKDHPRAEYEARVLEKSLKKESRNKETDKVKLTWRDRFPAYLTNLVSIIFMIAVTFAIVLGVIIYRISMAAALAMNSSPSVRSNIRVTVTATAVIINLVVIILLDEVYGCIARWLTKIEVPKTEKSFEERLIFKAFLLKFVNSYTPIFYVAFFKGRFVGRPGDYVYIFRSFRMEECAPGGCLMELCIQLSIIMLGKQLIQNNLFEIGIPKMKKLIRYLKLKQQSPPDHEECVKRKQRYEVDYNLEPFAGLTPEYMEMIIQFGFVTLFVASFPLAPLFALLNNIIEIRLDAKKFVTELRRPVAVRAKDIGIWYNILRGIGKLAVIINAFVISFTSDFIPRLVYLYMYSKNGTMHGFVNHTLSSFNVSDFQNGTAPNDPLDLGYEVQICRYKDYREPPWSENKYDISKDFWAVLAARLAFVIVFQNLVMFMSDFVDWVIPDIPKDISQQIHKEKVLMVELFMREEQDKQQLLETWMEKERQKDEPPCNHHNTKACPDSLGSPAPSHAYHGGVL
# protocol_details: Automated whole-cell patch clamp (Qpatch) TMEM16A potentiator assay in recombinant cells
# Format: cell-based
# reported_conditions: calculated from cumulative concentration response curve; FRT cells stably expressing human TMEM16A; whole-cell patch clamp; intracellular calcium at EC20
pEC50: −log10 of the molar value.
Respond with True for pEC50 values of 6 and above, False for values below.

| compound | class |
| --- | --- |
| O=C(NCC1CCCCCC1)c1ccc2[nH]c(Cc3ccc(F)cc3O)nc2c1 [Example 25.4] | True |
| O=C(CC1C2CC3CC(C2)CC1C3)Nc1ccc2[nH]c(Cc3cc(Cl)ccc3O)nc2c1 (centres unmarked) [Example 5.2] | True |
| O=C(NCC1CCCCCC1)c1ccc2[nH]c(Cc3c(O)cccc3F)nc2c1 [Example 25] | True |
| CC1(c2nc3ccc(C(=O)NCC4CCCCCC4)cc3[nH]2)CCC1 [Example 28] | True |
| O=C(NCC1CCCC1)c1ccc2[nH]c(Cc3ccccc3)nc2c1 [Example 24.1] | True |
| CC(C)c1nc2cc(NC(=O)CC3CCCCC3)ccc2o1 [Example 12] | False |

Q: Has CN[C@H](c1ccccc1)c1nc2cc(NC(=O)CC3C4CC5CC(C4)CC3C5)ccc2[nH]1 (some centres unmarked) [Example 3] a recorded pEC50 greater than or equal to 6?
A: False

Q: Has O=C(CC12CC3CC(CC(C3)C1)C2)Nc1ccc2[nH]c(CC3CCCCC3)nc2c1 [Example 1] a recorded pEC50 greater than or equal to 6?
A: True

Q: Has O=C(NCC1CCCCCC1)c1ccc2[nH]c(Cc3cccc(F)c3O)nc2c1 [Example 25.2] a recorded pEC50 greater than or equal to 6?
A: True

Q: Has CC(C)(C)Cc1nc2cc(NC(=O)Cc3cc(Cl)ccc3O)ccc2[nH]1 [Example 26] a recorded pEC50 greater than or equal to 6?
A: True

Q: Has O=C(NCC1CCCCCC1)c1ccc2[nH]c(Cc3ccccc3O)nc2c1 [Example 25.3] a recorded pEC50 greater than or equal to 6?
A: True

Q: Has CC(C)(C)c1cc(F)c(Cc2nc3cc(C(=O)NCC4(C(F)(F)F)CC4)ccc3[nH]2)cc1O [Example 21.1] a recorded pEC50 greater than or equal to 6?
A: True

Q: Has O=C(CC1C2CC3CC(C2)CC1C3)Nc1ccc2[nH]c(Cc3ccccc3O)nc2c1 (centres unmarked) [Example 5] a recorded pEC50 greater than or equal to 6?
A: True

* * *

# log10(EC50) values compiled below
# assay_system: human TMEM16A (TMEM16Aabc variant) (Homo sapiens, UniProt Q5XXA6, DEL476-501)
# protocol_details: Automated whole-cell patch clamp (Qpatch) TMEM16A potentiator assay in recombinant cells
# reported_conditions: calculated from cumulative concentration response curve; FRT cells stably expressing human TMEM16A; whole-cell patch clamp; intracellular calcium at EC20
A difference of one corresponds to tenfold EC50; all values are log10 with EC50 in nM.

| compound | measured_endpoint | test_value |
| --- | --- | --- |
| COC(c1ccccc1)c1nc2cc(NC(=O)CC3C4CC5CC(C4)CC3C5)ccc2[nH]1 (stereo not drawn) [Example 2.2] | log10(EC50) | 2.81 |
| O=C(NCC1CCCCCC1)c1ccc2[nH]c(Cc3cccc(O)c3)nc2c1 [Example 25.5] | log10(EC50) | 2.35 |
| O=C(CC1C2CC3CC(C2)CC1C3)Nc1ccc2[nH]c(OC3CCOC3)nc2c1 (stereo not drawn) [Example 9] | log10(EC50) | 2.92 |
| O=C(CC12CC3CC(CC(C3)C1)C2)Nc1ccc2cn(Cc3ccccc3)nc2c1 [Example 16] | log10(EC50) | 2.70 |
| O=C(CC12CC3CC(CC(C3)C1)C2)Nc1ccc2[nH]c(CNC(=O)OCC(F)(F)F)nc2c1 [Example 6] | log10(EC50) | 3.10 |

Q: Return the recorded log10(EC50) value; entry: O=C(NCC1CCCCCC1)c1ccc2[nH]c(Cc3cc(F)ccc3O)nc2c1 [Example 25.1]
A: 1.88

* * *

# % Potentiation @ 3.33 μM Avg values compiled below
# assay_system: human TMEM16A (TMEM16Aabc variant) (Homo sapiens, UniProt Q5XXA6, DEL476-501)
# protocol_details: Automated whole-cell patch clamp (Qpatch) TMEM16A potentiator assay in recombinant cells
# Format: cell-based
# reported_conditions: 3.33 μM solution of test compound; percentage increase of baseline TMEM16A current; FRT cells stably expressing human TMEM16A; peak current at +70 mV; intracellular calcium at EC20
I only need the number, in %, no unit after it.

Q: Return the recorded % Potentiation @ 3.33 μM Avg value; entry: O=C(NCC1CCCCCC1)c1ccc2[nH]c(Cc3cccc(O)c3)nc2c1
A: 66

Q: Return the recorded % Potentiation @ 3.33 μM Avg value; entry: O=C(CC12CC3CC(CC(C3)C1)C2)Nc1ccc2[nH]c(CC3CCCCO3)nc2c1 (stereo not drawn)
A: 100.5

Q: Return the recorded % Potentiation @ 3.33 μM Avg value; entry: CC(C)(C)c1nc2cc(NC(=O)Cc3cc(Cl)ccc3O)ccc2[nH]1 [Example 18]
A: 95.9

* * *

# assay_system: human TMEM16A (TMEM16Aabc variant) (Homo sapiens, UniProt Q5XXA6, DEL476-501)
# protocol_details: Automated whole-cell patch clamp (Qpatch) TMEM16A potentiator assay in recombinant cells
# reported_conditions: calculated from cumulative concentration response curve; FRT cells stably expressing human TMEM16A; whole-cell patch clamp; intracellular calcium at EC20
measured_endpoint: pEC50
Recall that pEC50 is obtained by taking minus log10 of the concentration measured in molar.

Illustrative cases are given below, each with its answer.
| compound | pEC50 |
| --- | --- |
| CC(C)(C)c1cc(F)c(CC(=O)Nc2ccc3[nH]c(C4(C(F)(F)F)CC4)nc3c2)cc1O | 7.28 |
| O=C(NCCC(F)(F)F)c1ccc2[nH]c(Cc3ccccc3)nc2c1 | 5.96 |
| O=C(CC12CC3CC(CC(C3)C1)C2)Nc1ccc2[nH]c(CC3CCCCO3)nc2c1 (stereo not drawn) | 5.96 |
| O=C(CC1C2CC3CC(C2)CC1C3)Nc1ccc2[nH]c(Cc3ccc(O)cc3)nc2c1 (stereo not drawn) | 6.22 |
| CC(C)(C)c1cc(F)c(Cc2nc3cc(C(=O)NCCC(F)(F)F)ccc3[nH]2)cc1O | 6.82 |

Q: Return the recorded pEC50 value; entry: O=C(NCC1CCCCCC1)c1ccc2oc(Cc3ccccc3O)nc2c1
A: 6.91

Q: Return the recorded pEC50 value; entry: O=C(NCC1CCCCCC1)c1ccc2[nH]c(Cc3ccccc3)nc2c1
A: 6.92

Q: Return the recorded pEC50 value; entry: CC(C)(C)c1nc2ccc(C(=O)NCC3CCCCCC3)cc2[nH]1
A: 6.11

Q: Return the recorded pEC50 value; entry: CC(C)(C)c1nc2cc(NC(=O)Cc3cc(Cl)ccc3O)ccc2[nH]1 [Example 27]
A: 6.81

The reported measurements were obtained from patent US12552770B2.
